Please respond with reported inhibition for every item in the list.
Molecular target: Serine/threonine-protein kinase Sgk1 (Homo sapiens)
Details: at 0.1 µM
Description: GSK_PKIS: SGK1 mean inhibition at 0.1 uM [Nanosyn]

Example results:
CN1CCC(n2cnc(-c3ccc(F)cc3)c2-c2ccnc(N)n2)CC1; 2.03%
Fc1ccc(-c2nn3ccccc3c2-c2ccncc2)cc1; 0.19%
c1ccc(COc2ccc(Nc3ncnc4ccc(-c5ccco5)cc34)cc2)cc1; 1.43%
COc1ccc(CNC(=O)c2ccc(-c3cc(-c4nnc(C)o4)ccc3C)cc2)cc1; 5.7%
COc1cc(/C=N/Nc2ncnc3[nH]ncc23)ccc1O; 13%
FC(F)(F)c1cccc(-c2nn3ncccc3c2-c2ccnc(Nc3ccc4c(c3)OCCO4)n2)c1; 1.35%
NS(=O)(=O)c1ccc(N/N=C2\C(=O)Nc3ccc4ncccc4c32)cc1; 10.6%
c1ccc(-c2nc3n(c2-c2ccc4c(c2)OCO4)CCC3)nc1; 1.69%
Cc1cccc2c1NC(=O)/C2=N\Nc1ccc(S(N)(=O)=O)cc1; 0.42%
CNC(=O)c1cccc(C#Cc2cncnc2Nc2ccc(OCc3cccc(F)c3)c(Cl)c2)c1; 1.16%

// each listed compound needs a value for inhibition
1. CCN1CCC(CC(=O)Nc2n[nH]c3nnc(-c4cccc(F)c4F)cc23)CC1
2. Fc1ccc(-c2nn3ncccc3c2-c2ccnc(Nc3ccc4c(c3)OCCO4)n2)cc1
3. N#Cc1c(NC(=O)CN2CCOCC2)sc2c1CCCC2
4. COc1ccc2[nH]c3c4[nH]c5ccc(OC)cc5c4c4c(c3c2c1)C(=O)NC4=O

**Result**
1: 0.53%; 2: 3.85%; 3: 0.28%; 4: 21.8%

====

Target: G protein-coupled receptor kinase 6 (Homo sapiens);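 further: values are averaged percent inhibition of GRK6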
Settings: at 1 µM
Please respond with reported inhibition for every item in the list.
One number for each entry, in %.

Example results:
Cc1ccc(O)cc1Nc1ccnc2cc(-c3ccccn3)ccc12; -3.7
Cc1ccc2c(-c3ccnc(Nc4ccccc4)n3)c(-c3ccc(F)cc3)nn2n1; -3.54
CN1CCC(n2cnc(-c3ccc(F)cc3)c2-c2ccnc(Nc3ccccc3)n2)CC1; 2.65
COc1ccc2c(-c3ccnc(Nc4cccc(OC(F)(F)F)c4)n3)cnn2n1; 5.84

// each listed compound needs a value for inhibition
1. c1cc(-c2cnn3nc(N4CCOCC4)ccc23)nc(NC2CC2)n1
2. COC(=O)Nc1nc2ccc(Oc3ccc(NC(=O)Nc4cccc(Cl)c4)cc3)cc2[nH]1
3. CCN(CC)S(=O)(=O)c1ccc(OC)c(Nc2ncc(-c3ccccc3)o2)c1

**Result**
1: 1.72; 2: 0.02; 3: -0.46

====

Target: Inhibitor of nuclear factor kappa-B kinase subunit alpha (Homo sapiens) (UniProt O15111);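 further: mean inhibition of IKKA, from the GSK PKIS data set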
Sequence (O15111 whole entry): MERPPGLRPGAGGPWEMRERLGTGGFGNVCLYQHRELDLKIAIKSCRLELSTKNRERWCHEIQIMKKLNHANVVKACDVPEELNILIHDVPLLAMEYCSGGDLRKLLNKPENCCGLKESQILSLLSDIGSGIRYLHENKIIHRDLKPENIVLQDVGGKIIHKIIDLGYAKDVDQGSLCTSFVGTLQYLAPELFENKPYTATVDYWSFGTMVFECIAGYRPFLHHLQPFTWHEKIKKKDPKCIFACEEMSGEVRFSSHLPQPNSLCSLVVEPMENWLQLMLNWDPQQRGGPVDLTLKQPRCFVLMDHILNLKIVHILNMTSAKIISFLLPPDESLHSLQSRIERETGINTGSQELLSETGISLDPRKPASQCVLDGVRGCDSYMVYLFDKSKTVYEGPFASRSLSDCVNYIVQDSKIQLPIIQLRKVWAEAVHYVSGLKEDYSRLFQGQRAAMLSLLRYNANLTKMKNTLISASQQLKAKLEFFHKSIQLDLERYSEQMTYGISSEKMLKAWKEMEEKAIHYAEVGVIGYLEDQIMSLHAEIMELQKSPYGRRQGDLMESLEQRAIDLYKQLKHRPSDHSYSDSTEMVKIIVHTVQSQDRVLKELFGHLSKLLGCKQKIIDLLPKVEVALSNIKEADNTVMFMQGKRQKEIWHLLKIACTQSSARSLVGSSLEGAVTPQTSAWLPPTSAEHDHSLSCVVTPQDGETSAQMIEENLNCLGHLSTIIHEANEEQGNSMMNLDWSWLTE
Conditions: at 1 µM
experimentalEndpoint: inhibition (%)
Give bare numbers, in %.

CCn1c(-c2nonc2N)nc2c(C#CC(C)(C)O)nc(OC[C@H](N)c3ccccc3)cc21; 2.58

// each listed molecule needs a value for inhibition
1. CCn1c(-c2nonc2N)nc2c(C#CC(C)(C)O)ncc(OC3CCNCC3)c21
2. COC(=O)c1sc(-n2cnc3cc(OC)c(OC)cc32)cc1OCc1ccccc1C(F)(F)F
3. CC(=O)Nc1cccc(C#Cc2cncnc2Nc2ccc(OCc3cccc(F)c3)c(Cl)c2)c1
4. Fc1cccc(COc2ccc(Nc3ncnc4sc(-c5ccco5)cc34)cc2Cl)c1

**Result**
1. 0.96
2. 5.32
3. -2.41
4. 10.1

====

Target: Tyrosine-protein kinase receptor UFO (Homo sapiens) (UniProt P30530);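 further: values are mean percent inhibition of AXL from the GSK PKIS screen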
Sequence (P30530 whole entry): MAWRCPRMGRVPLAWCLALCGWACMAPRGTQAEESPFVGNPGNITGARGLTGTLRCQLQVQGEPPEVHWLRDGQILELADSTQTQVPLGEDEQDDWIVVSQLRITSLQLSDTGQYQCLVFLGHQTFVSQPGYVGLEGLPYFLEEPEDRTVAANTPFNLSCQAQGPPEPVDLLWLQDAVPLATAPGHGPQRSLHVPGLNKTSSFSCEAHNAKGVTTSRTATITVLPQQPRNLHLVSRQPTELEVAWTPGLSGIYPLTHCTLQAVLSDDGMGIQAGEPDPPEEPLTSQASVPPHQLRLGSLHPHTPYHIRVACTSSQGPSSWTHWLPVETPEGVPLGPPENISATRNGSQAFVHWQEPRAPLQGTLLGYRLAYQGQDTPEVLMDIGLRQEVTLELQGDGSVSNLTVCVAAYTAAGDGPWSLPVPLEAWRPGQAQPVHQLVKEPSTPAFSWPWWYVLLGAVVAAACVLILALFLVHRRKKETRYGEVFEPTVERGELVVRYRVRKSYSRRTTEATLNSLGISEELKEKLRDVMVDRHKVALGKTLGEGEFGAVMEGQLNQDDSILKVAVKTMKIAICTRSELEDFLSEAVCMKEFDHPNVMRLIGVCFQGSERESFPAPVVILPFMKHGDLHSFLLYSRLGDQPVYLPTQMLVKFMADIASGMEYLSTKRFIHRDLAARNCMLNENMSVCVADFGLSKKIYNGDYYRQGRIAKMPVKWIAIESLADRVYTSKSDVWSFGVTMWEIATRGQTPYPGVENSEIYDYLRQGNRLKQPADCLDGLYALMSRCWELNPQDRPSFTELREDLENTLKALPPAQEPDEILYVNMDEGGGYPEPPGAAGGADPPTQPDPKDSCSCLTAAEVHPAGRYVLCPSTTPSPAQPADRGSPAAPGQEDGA
Conditions: at 0.1 µM
Please respond with reported inhibition for every item in the list.
Give bare numbers, in %.

CCOc1ccc2c(-c3ccnc(Nc4cccc(C(F)(F)F)c4)n3)cnn2n1; -3.01
Nc1nc(-c2cccc(Cl)c2)c(-c2ccc3ncccc3n2)s1; -6.08
COc1cccc(-c2c[nH]c3c(N/N=C/c4ccncc4)ncnc23)c1; -2.43

// each listed compound needs a value for inhibition
1. COc1ccc2[nH]c3c4[nH]c5ccc(OC)cc5c4c4c(c3c2c1)C(=O)NC4=O
2. CCn1c(-c2nonc2N)nc2cnc(Oc3cccc(NC(=O)c4ccc(N(C)C)cc4)c3)cc21
3. Fc1cccc(COc2ccc(Nc3ncnc4sc(-c5ccco5)cc34)cc2Cl)c1
4. Nc1ncc(-c2cccc(S(N)(=O)=O)c2)c2scc(-c3ccc(F)c(Cl)c3)c12
5. COc1ccc2c(-c3ccnc(Nc4cccc(OC(F)(F)F)c4)n3)cnn2n1
6. COc1ccc(-c2cc3c(N)ncnc3o2)cc1
7. COc1cc2c(cc1Nc1nc(Nc3ccsc3C(N)=O)c3cc[nH]c3n1)N(C(=O)CN(C)C)CCC2(C)C

**Result**
1: 11; 2: -3.9; 3: -6.97; 4: -4.87; 5: -4.17; 6: 2.44; 7: 47.4

====

Please respond with reported inhibition for every item in the list.
Tested on: Mast/stem cell growth factor receptor Kit (Homo sapiens), P10721 [D816V]
Sequence (P10721 whole entry D816V): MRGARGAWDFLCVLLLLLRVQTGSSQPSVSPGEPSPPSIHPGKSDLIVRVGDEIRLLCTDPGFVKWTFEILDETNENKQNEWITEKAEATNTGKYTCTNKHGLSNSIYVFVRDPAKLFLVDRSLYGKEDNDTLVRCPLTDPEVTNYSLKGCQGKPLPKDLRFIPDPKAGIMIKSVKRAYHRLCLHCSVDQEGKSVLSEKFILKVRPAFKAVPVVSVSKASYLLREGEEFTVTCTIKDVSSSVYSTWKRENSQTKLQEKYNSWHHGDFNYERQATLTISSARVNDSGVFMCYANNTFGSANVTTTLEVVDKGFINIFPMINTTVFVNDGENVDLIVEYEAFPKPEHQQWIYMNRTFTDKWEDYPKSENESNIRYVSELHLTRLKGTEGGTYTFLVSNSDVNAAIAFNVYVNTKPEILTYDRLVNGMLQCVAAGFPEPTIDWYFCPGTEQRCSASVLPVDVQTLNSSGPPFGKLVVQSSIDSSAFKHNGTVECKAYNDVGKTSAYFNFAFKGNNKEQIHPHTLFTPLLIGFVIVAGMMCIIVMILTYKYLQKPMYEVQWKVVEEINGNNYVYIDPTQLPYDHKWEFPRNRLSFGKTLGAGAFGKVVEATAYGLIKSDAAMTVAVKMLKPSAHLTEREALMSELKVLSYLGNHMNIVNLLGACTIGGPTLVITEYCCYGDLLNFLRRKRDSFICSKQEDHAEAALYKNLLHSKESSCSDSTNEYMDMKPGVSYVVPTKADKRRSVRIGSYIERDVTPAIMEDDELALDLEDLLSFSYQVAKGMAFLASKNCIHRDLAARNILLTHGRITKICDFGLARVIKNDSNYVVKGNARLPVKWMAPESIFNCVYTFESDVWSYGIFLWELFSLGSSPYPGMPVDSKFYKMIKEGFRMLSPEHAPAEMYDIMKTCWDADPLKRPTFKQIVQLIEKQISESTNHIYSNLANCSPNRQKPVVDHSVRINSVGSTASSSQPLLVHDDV
Settings: at 1 µM
Give bare numbers, in %.

CCN1CCC(CC(=O)Nc2n[nH]c3nnc(-c4cccc(F)c4F)cc23)CC1; 0.47
CNC(=O)c1cccc(C#Cc2cncnc2Nc2ccc(OCc3cccc(F)c3)c(Cl)c2)c1; 3.12
COc1cccc(-c2c[nH]c3c(N/N=C/c4ccncc4)ncnc23)c1; 38.7
CC(=O)NCc1cccc(C#Cc2cncnc2Nc2ccc(OCc3cccc(F)c3)c(Cl)c2)c1; -2.37
Fc1ccc(-c2nn3ccccc3c2-c2ccncc2)cc1; -0.05
Nc1nc(-c2cccc(Cl)c2)c(-c2ccc3ncccc3n2)s1; 8.71
O=C(Nc1n[nH]c2cc(-c3ccc(F)cc3)ccc12)C1CC1; 5.66
CCn1c(-c2nonc2N)nc2c(C#CC(C)(C)O)nc(OC[C@H](N)c3ccccc3)cc21; 10

// each listed molecule needs a value for inhibition
1. CCn1c(-c2nonc2N)nc2c(C#CC(C)(C)O)ncc(OC3CCNCC3)c21
2. Fc1cccc(COc2ccc(Nc3ncnc4sc(-c5ccco5)cc34)cc2Cl)c1

**Result**
[6.05, 6.34]

====

System: Mast/stem cell growth factor receptor Kit (Homo sapiens), P10721 [T670I]
Sequence (P10721 whole entry T670I): as the sequence (P10721 whole entry D816V) above, with T670I, V816D counted along it
Conditions: at 1 µM
experimentalEndpoint: inhibition (%)
Answers are plain numbers, in %.

Example results:
COc1cc2c(cc1Nc1nc(Nc3ccsc3C(N)=O)c3cc[nH]c3n1)N(C(=O)CN(C)C)CCC2(C)C; 16.2
c1cc(-c2cnn3nc(N4CCOCC4)ccc23)nc(NC2CC2)n1; 3.28
c1ccc(COc2ccc(Nc3ncnc4ccc(-c5ccco5)cc34)cc2)cc1; -1.15

// each listed molecule needs a value for inhibition
1. CCCN1CCC(c2ccc(Nc3nc(Nc4cc(F)ccc4C(N)=O)c4cc[nH]c4n3)c(OC)c2)CC1
2. COc1ccc(-c2cc3c(N)ncnc3o2)cc1

**Result**
8.96
-2.59

====

Molecular target: Ephrin type-A receptor 4 (Homo sapiens)
Details: at 1 µM
Description: GSK_PKIS: EPHA4 mean inhibition at 1 uM [Nanosyn]
Please respond with reported inhibition for every item in the list.
Numbers only, in %.

CCc1nn2ncccc2c1-c1ccnc(NC2CC2)n1; 8.02
CCn1c(-c2nonc2N)nc2ccccc21; 9.13
CN(C)CCOc1ccc(-c2nc(-c3ccncc3)c(-c3ccc4c(c3)CC/C4=N\O)[nH]2)cc1; 9.28
CNC(=O)c1cncc(/C=C/c2ccccc2Cl)c1; 15
CCCN1CCC(c2ccc(Nc3nc(Nc4cc(F)ccc4C(N)=O)c4cc[nH]c4n3)c(OC)c2)CC1; 12.9
NS(=O)(=O)c1ccc(N/N=C2\C(=O)Nc3ccc4ncccc4c32)cc1; 31
CC(C)COC(=O)c1ccc2c(c1)/C(=C/Nc1ccc(S(N)(=O)=O)cc1)C(=O)N2; 1.79
N#Cc1c(NC(=O)CN2CCOCC2)sc2c1CCCC2; 13.1

// each listed compound needs a value for inhibition
1. CN1CCC(n2cnc(-c3ccc(F)cc3)c2-c2ccnc(N)n2)CC1
2. O=S(=O)(CCNCc1ccc(-c2ccc3ncnc(Nc4ccc(OCc5cccc(F)c5)c(Cl)c4)c3c2)o1)c1ccccc1

**Result**
7.11
13.3

====

Target: Proto-oncogene tyrosine-protein kinase Src (Homo sapiens) (UniProt P12931);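 further: values are averaged inhibition of Src, tested against the GSK PKIS kinase inhibitor set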
Sequence (P12931 2-536 limits assumed): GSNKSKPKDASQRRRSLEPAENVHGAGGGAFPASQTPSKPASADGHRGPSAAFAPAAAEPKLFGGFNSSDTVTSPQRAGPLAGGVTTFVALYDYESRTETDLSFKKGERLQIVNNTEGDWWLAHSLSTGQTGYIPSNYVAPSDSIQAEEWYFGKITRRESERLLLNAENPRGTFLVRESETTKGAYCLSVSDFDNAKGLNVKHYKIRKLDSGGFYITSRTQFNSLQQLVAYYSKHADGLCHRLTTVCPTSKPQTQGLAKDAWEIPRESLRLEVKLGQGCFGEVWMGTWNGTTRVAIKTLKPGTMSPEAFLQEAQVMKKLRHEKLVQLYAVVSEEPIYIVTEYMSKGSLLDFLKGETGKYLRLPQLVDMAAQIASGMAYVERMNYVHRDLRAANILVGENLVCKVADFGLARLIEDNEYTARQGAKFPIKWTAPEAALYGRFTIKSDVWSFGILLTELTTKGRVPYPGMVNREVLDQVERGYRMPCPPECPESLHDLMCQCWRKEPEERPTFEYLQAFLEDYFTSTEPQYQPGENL
Conditions: at 0.1 µM
Quick rule for you: inhibition at 5% or higher means rule met, lower means rule not met.

Some entries whose results are on file:
CS(=O)(=O)CCNCc1coc(-c2ccc3ncnc(Nc4ccc(OCc5ccccc5)cc4)c3c2)c1; rule met
NS(=O)(=O)c1ccc(N/N=C2\C(=O)Nc3ccc4ncccc4c32)cc1; rule met
CCn1c(-c2nonc2N)nc2c(C#CC(C)(C)O)nc(OC[C@H](N)c3ccccc3)cc21; rule met

Proceed to the following item.
**Query** Is it the case that `CCOc1ccc2c(-c3ccnc(Nc4cccc(C(F)(F)F)c4)n3)cnn2n1` has inhibition reaching or exceeding 5%?
**Result** rule not met

====

Please respond with reported inhibition for every item in the list.
Target: Platelet-derived growth factor receptor beta (Homo sapiens) (UniProt P09619);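 further: each value is a mean percent inhibition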
Sequence (P09619 whole entry): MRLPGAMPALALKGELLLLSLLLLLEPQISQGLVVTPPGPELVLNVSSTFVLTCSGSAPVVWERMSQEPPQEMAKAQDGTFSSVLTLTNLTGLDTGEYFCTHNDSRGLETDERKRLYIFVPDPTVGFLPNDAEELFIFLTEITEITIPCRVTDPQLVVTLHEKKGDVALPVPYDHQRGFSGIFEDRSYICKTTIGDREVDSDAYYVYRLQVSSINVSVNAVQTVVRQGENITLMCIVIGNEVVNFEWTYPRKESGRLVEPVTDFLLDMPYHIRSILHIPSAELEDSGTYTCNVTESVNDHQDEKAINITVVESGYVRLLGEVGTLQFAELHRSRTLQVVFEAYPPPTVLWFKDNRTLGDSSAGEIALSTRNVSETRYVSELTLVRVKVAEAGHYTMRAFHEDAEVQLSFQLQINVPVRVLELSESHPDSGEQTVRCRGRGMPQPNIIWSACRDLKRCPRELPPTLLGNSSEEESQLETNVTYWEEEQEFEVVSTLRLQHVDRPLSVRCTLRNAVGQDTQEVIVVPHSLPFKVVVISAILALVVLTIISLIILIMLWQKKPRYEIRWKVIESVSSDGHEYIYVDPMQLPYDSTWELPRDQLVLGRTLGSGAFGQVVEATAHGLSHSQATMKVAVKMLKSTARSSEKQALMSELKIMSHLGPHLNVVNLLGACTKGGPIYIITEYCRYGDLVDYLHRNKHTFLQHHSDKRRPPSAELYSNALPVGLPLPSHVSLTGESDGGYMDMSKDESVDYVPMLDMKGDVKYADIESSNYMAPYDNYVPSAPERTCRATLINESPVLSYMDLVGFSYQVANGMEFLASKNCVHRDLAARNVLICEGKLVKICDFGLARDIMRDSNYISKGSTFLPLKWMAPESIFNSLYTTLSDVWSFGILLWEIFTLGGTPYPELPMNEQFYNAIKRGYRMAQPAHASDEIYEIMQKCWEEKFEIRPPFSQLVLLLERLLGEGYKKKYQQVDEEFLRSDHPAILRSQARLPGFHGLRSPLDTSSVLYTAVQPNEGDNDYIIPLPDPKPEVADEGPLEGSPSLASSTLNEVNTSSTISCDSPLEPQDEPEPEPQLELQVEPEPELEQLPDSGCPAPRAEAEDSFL
Settings: at 1 µM
Give bare numbers, in %.

Example results:
COc1ccc2[nH]c3c4[nH]c5ccc(OC)cc5c4c4c(c3c2c1)C(=O)NC4=O; 85.1
CCN1CCC(CC(=O)Nc2n[nH]c3nnc(-c4cccc(F)c4F)cc23)CC1; 5.87
CCCN1CCC(c2ccc(Nc3nc(Nc4cc(F)ccc4C(N)=O)c4cc[nH]c4n3)c(OC)c2)CC1; 54.5
COc1cc2c(cc1Nc1nc(Nc3ccsc3C(N)=O)c3cc[nH]c3n1)N(C(=O)CN(C)C)CCC2(C)C; 62.7
CCn1c(-c2nonc2N)nc2c(C#CC(C)(C)O)ncc(OC3CCNCC3)c21; 41.1
CCNC(=O)O[C@H]1CN[C@H](C#Cc2cc3ncnc(Nc4ccc(OCc5cccc(F)c5)c(Cl)c4)c3s2)C1; 5.63

// each listed molecule needs a value for inhibition
1. Nc1nc(-c2cccc(Cl)c2)c(-c2ccc3ncccc3n2)s1
2. CNC(=O)c1cc(-c2ccc(F)cc2)cc(-c2ccc(S(=O)(=O)N3CCCC3)cc2)c1N
3. N#Cc1c(NC(=O)CN2CCOCC2)sc2c1CCCC2
4. Fc1ccc(-c2nn3ncccc3c2-c2ccnc(Nc3ccc4c(c3)OCCO4)n2)cc1
5. COc1cccc(-n2ncc3c(N/N=C/c4ccc(F)cc4)ncnc32)c1

**Result**
[15, 6.26, 8.2, 69.7, 45.3]

// each listed molecule needs a value for inhibition
1. Cc1ccc(O)cc1Nc1ccnc2cc(-c3ccccn3)ccc12
2. COc1ccc(-c2cc(-c3c[nH]nc3-c3ccccn3)ccn2)cc1
3. CNC(=O)c1cccc(C#Cc2cncnc2Nc2ccc(OCc3cccc(F)c3)c(Cl)c2)c1
4. CNC(=O)c1cncc(/C=C/c2ccccc2Cl)c1
5. CCOc1ccc2c(-c3ccnc(Nc4cccc(C(F)(F)F)c4)n3)cnn2n1
6. CC(C)(CO)CNC(=O)c1ccc2c(c1)/C(=N/Nc1ccc(S(N)(=O)=O)cc1)C(=O)N2

**Result**
[87, 31.9, 14.1, 20, 20.5, 72.3]
